Target: T1, human CD276 protein (human, UniProt Q5ZPR3 29-534)
T1 sequence (looked up): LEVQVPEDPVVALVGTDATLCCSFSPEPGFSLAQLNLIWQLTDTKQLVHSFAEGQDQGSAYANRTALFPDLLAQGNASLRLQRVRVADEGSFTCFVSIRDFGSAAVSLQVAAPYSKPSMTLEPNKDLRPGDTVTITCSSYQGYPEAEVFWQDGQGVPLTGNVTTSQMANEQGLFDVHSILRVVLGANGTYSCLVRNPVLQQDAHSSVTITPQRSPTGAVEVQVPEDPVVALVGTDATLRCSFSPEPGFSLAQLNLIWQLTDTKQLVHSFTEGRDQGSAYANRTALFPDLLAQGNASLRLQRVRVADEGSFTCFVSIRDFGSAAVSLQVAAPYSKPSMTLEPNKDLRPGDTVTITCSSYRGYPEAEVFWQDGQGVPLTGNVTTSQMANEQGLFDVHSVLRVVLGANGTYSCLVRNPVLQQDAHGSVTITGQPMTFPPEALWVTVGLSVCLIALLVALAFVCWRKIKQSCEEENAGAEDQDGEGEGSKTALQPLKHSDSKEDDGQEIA
Test: cell-based or functional assay
metric: EC50 of antibody induced ADCC effect on SKOV3 (µg/mL)

| binder | obs_value |
| --- | --- |
| 6-D8-E7-A11 (human IgG1 chimeric antibody) (antibody, V domains shown, human IgG1 chimeric antibody of the mouse clone) VH: QVHLQQPGAELVKPGASVKLSCKASGYTFTNYWMHWVKRRPGQGLEWIGMIHPNSGTTSFNEKFKSKATLTVDKSSSTAYMQLSSLTSEDSAVYYCAGYYGSSFSWFTYWGQGTLVTVSA VL: QAVVTQESALTTSPGGTVILTCRSSTGAVTTSNFANWVQEKPDHLFTGLIGGTSNRAPGVPVRFSGSLIGDKAALTITGAQTEDDAMYFCALWYSTHYVFGGGTKVTVL | 0.0668 |
| 13-E4-G9-A4 (human IgG1 chimeric antibody) (antibody, V domains shown, human IgG1 chimeric antibody of the mouse clone) VH: EVMLVESGGGLVKPGGSLKFSCAASGFTFITYAMSWVRQTPEKRLEWVATISGGGIDTYYPDSVKGRFTISRDNAKNTLYLQVNSLRSEDTAMYYCTRQGSQGWGAMDYWGQGTSVTVSS VL: QIVLTQSPPIMSASPGERVTMTCRASSRVSFMHWYQQKSGTSPRRWIYETSKLASGVPDRFSGSVSGTSYSLTISSMEAEDAATYYCQQWSSNPLTFGAGTKLELK | 0.876 |
| 25-D3-G4-C6 (human IgG1 chimeric antibody) (antibody, V domains shown, human IgG1 chimeric antibody of the mouse clone) VH: EIQLQQTGPELVKPGASVKISCKASGYSFTDYIILWVKQSHGMSLEWIGNINPYYNSTYYNLKFKGKATLTVDKSSSTAYMQLDSLTSEDSAVYYCARDSFDWYFGVWGAGTTVTVSS VL: DVVMTQTPLSLPVSLGDQASISCRSSQSLVHSNGNTYLHWYLQKPGQSPKLLIYKVSNRFSGVPDRFSGSGSGTDFTLKISRVETEDLGIYFCSQSTHVPPLTFGAGTKLELK | 0.0372 |
| 25-C8-D7-C5 (human IgG1 chimeric antibody) (antibody, V domains shown, human IgG1 chimeric antibody of the mouse clone) VH: EVQLQESGGGLVKPGGSLKFSCAASGFTFSTYAMSWVRQTPEKRLEWVATISGGGIDTYYPDSVKGRFTISRDNAKNTLYLQMNSLRSEDTAMYYCARQGSKGWGAMDYWGQGTSVTVSS VL: QIVLTQSPAIMSASPGEKVTMTCRASSSVSFMHWYQQKSGTSPKRWIYETSKLASGVPDRFSGSGSGTSYSLTISSMEAEDAATYYCQQWSSNPLTFGAGTKLELK | 0.123 |
| 9-G2-H6-E4 (human IgG1 chimeric antibody) (antibody, V domains shown, human IgG1 chimeric antibody of the mouse clone) VH: EVQLQQSGPDLVKPGASVKISCKASGYSFTGYFMNWVKQRHGKSLEWIGYINPNNGDTIYNQKFKGKATLTVDKSSSTAHMELLSLTSEDSAVYYCGRGGLPFGALDYWGQGTSVTVSS VL: DIVMSQSPSSLAVSVGEKVNMSCKSSQSLLYSRNQKNYLAWNQQKPGQSPKLLIYWASARESGVPDRFTGSGSGTDFTLTISSVKAEDLAAYYCQQYHSYPYTFGGGTKLELK | 13.6 |
